Conditions: rat, in vivo, po, 5 mg/kg, 24 h
For each record, write down the corresponding F.
Express your answer in %, writing the number without its unit.

Noted for Cc1ccc(O)c(C)c1-n1c(N)c(C(N)=O)c2cc(C3CC3)cnc21 : its F reads 28

Noted for Cc1ccc(O)c(C)c1-n1c(N)c(C(N)=O)c2cc(Cl)cnc21 : its F reads 37

Noted for Cc1ccc(O)c(C)c1-n1c(N)c(C(N)=O)c2nc(N3CCOCC3)cnc21 : its F reads 18

Noted for Cc1ccc(O)c(C)c1-n1c(N)c(C(N)=O)c2cc(Cl)c(C)nc21 : its F reads 24

Noted for Cc1ccc(O)c(C)c1-n1c(N)c(C(N)=O)c2nccnc21 : its F reads 56

Noted for Cc1cnc2c(c1)c(C(N)=O)c(N)n2-c1c(C)ccc(O)c1C : its F reads 62

* * *

For each record, write down the corresponding PPB.
Test: Plasma protein binding in rat at 1 uM
# output: number + unit

Noted for Cc1ccc(O)c(C)c1-n1c(N)c(C(N)=O)c2cc(Cl)c(C)nc21 : its PPB reads 93.1%

Noted for Cc1ccc(O)c(C)c1-n1c(N)c(C(N)=O)c2cc(C3CC3)cnc21 : its PPB reads 80.3%

Noted for Cc1ccc(O)c(C)c1-n1c(N)c(C(N)=O)c2nccnc21 : its PPB reads 81%

Noted for Cc1cnc2c(c1)c(C(N)=O)c(N)n2-c1c(C)ccc(O)c1C : its PPB reads 73.8%

Noted for Cc1ccc(O)c(C)c1-n1c(N)c(C(N)=O)c2nc(N3CCOCC3)cnc21 : its PPB reads 62.8%

Noted for Cc1ccc(O)c(C)c1-n1c(N)c(C(N)=O)c2cc(Cl)cnc21 : its PPB reads 88.1%

* * *

Target: Ephrin type-B receptor 3 (Homo sapiens, UniProt P54753)
Sequence (P54753 whole entry, the tested form may be a part): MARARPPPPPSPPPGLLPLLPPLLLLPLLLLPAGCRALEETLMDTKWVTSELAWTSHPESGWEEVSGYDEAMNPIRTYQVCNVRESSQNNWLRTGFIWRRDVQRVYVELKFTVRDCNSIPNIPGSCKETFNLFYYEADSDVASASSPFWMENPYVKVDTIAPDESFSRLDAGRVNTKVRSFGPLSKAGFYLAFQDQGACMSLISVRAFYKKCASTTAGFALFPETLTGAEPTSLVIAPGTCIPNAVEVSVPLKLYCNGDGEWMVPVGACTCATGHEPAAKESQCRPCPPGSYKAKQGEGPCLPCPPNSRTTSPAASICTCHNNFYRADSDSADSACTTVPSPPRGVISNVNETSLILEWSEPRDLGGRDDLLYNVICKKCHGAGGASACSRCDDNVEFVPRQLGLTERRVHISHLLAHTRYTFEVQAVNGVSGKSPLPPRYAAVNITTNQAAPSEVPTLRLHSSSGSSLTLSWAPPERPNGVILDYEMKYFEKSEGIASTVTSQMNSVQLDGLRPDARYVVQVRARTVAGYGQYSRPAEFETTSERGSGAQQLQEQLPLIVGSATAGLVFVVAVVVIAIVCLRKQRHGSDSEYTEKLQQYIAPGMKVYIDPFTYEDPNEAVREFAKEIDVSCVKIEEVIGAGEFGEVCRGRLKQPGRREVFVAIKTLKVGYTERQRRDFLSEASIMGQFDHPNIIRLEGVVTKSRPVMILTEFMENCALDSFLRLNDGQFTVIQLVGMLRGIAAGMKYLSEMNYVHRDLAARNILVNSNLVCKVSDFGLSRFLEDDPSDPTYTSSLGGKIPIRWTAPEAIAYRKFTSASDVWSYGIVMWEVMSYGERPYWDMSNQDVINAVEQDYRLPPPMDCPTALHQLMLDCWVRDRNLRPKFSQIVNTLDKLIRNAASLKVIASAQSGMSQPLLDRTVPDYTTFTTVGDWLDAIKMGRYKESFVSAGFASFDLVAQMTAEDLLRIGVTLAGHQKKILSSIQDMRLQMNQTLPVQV
Experiment: Inhibition of full length Nano-luc fused EPHB3 in human HEK-293T cells incubated for 2 hrs by cell based NanoBRET target engagement assay
PROPERTY MEASURED: IC50 (nM)
Express your answer in nM, writing the number without its unit.

Noted for Cc1ccc(O)cc1-n1c(N)c(C(N)=O)c2nc3ccccc3nc21 : its IC50 reads 7

Noted for Cc1ccc(O)c(Cl)c1-n1c(N)c(C(N)=O)c2nc3ccccc3nc21 : its IC50 reads 7

Noted for Cc1ccc(O)cc1-n1c(N)c(C(N)=O)c2cc3ccccc3nc21 : its IC50 reads 7

* * *

Target: UniProt:P11712
Sequence (P11712 whole entry): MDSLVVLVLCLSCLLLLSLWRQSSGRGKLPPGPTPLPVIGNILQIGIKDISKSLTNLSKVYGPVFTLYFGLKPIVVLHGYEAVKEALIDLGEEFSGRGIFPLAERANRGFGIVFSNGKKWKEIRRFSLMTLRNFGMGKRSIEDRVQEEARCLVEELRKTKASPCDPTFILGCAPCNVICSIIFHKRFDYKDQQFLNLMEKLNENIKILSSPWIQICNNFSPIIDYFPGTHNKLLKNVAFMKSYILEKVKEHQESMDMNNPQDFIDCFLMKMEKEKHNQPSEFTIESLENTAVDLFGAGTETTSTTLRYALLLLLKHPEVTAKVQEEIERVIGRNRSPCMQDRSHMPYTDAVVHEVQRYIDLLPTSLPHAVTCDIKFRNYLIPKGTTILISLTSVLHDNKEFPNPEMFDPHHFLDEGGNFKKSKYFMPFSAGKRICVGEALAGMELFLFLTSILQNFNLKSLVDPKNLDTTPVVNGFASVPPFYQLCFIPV
Assay: Inhibition of CYP2C9 (unknown origin)
pIC50: −log10 of the molar value.
PROPERTY MEASURED: pIC50

Noted for Cc1cc2c(C(N)=O)c(N)n(-c3c(C)ccc(O)c3C)c2nc1C [LUNRESERTIB] : its pIC50 reads < 4.52

Noted for Cc1ccc(O)c(C)c1-n1c(N)c(C(N)=O)c2nccnc21 : its pIC50 reads < 4.52

Noted for Cc1ccc(O)c(C)c1-n1c(N)c(C(N)=O)c2nc(N3CCOCC3)cnc21 : its pIC50 reads < 4.52

Noted for Cc1ccc(O)c(C)c1-n1c(N)c(C(N)=O)c2cc(Cl)cnc21 : its pIC50 reads 4.59

* * *

For each record, write down the corresponding Papp.
Experiment: Apparent permeability across apical to basolateral side in human Caco-2 cells

Noted for Cc1ccc(O)c(C)c1-n1c(N)c(C(N)=O)c2nccnc21 : its Papp reads 19 10^-6 cm/s

Noted for Cc1ccc(O)c(C)c1-n1c(N)c(C(N)=O)c2nc(N3CCOCC3)cnc21 : its Papp reads 5.8 10^-6 cm/s

Noted for Cc1ccc(O)c(C)c1-n1c(N)c(C(N)=O)c2cc(Cl)cnc21 : its Papp reads 18.3 10^-6 cm/s

Noted for Cc1cc2c(C(N)=O)c(N)n(-c3c(C)ccc(O)c3C)c2nc1C : its Papp reads 15.2 10^-6 cm/s

* * *

Settings: rat, in vivo, iv, 1 mg/kg, 24 h
For each record, write down the corresponding CL free.
Express your answer in mL/min/kg, writing the number without its unit.

Noted for Cc1ccc(O)c(C)c1-n1c(N)c(C(N)=O)c2cc(Cl)c(C)nc21 : its CL free reads 731

Noted for Cc1ccc(O)c(C)c1-n1c(N)c(C(N)=O)c2nc(N3CCOCC3)cnc21 : its CL free reads 151

Noted for Cc1cnc2c(c1)c(C(N)=O)c(N)n2-c1c(C)ccc(O)c1C : its CL free reads 76

Noted for Cc1ccc(O)c(C)c1-n1c(N)c(C(N)=O)c2nccnc21 : its CL free reads 81

Noted for Cc1ccc(O)c(C)c1-n1c(N)c(C(N)=O)c2cc(C3CC3)cnc21 : its CL free reads 170

Noted for Cc1ccc(O)c(C)c1-n1c(N)c(C(N)=O)c2cc(Cl)cnc21 : its CL free reads 215

* * *

For each record, write down the corresponding IC50.
Express your answer in nM, writing the number without its unit.

Tested on UniProtKB P30291: Cc1ccc2[nH]ncc2c1-n1c(N)c(C(N)=O)c2nc3ccccc3nc21 . Observed IC50: 3200

Tested on UniProtKB P30291: NC(=O)c1c(N)n(-c2cccc(O)c2)c2nc3ccccc3nc12 . Observed IC50: 19600

Tested on UniProtKB P30291: NC(=O)c1c(N)n(-c2c(Cl)ccc(O)c2Cl)c2nc3ccccc3nc12 . Observed IC50: 220

Tested on UniProtKB P30291: Cc1c(O)cccc1-n1c(N)c(C(N)=O)c2nc3ccccc3nc21 . Observed IC50: 2200
